Please provide measured TGI for the entries that follow.
Tested on: MDA-N
procedure details: NCI tumour cell line growth inhibition, 48 h

The cases that follow already have their TGI on record.
INSERT INTO measurements (compound, reported_measurement) VALUES
  ('COc1ccc(C(CC(C)=O)c2c(O)c3ccccc3oc2=O)cc1OC (stereo unspecified)', '> 100 µM'),
  ('N#C/C(=C/NC(=S)NCc1ccccc1)C(N)=O', '> 100 µM'),
  ('COc1ccc(-c2nc(N)n(C)c2SSc2c(-c3ccc(OC)cc3)nc(N)n2C)cc1', '6 µM'),
  ('COc1cccc(CC2C(=O)N=C(NC(C)=O)N2C)c1OC(C)=O (stereo unspecified)', '> 100 µM'),
  ('O=C(CSc1nnc(-c2ccccn2)s1)N/N=C/c1ccc([N+](=O)[O-])cc1', '> 100 µM');

Note: attention shifts to another entry.
compound COC(=O)CN1Cc2cc(C)cc(c2O)CN(CC(=O)OC)Cc2cc(C)cc(c2O)CN(CC(=O)OC)Cc2cc(C)cc(c2O)C1 , TGI observed: > 100 µM

###

Test system: MDA-N
procedure details: NCI tumour cell line growth inhibition, 48 h
measurement name: TGI

INSERT INTO assay_data (compound, experimental_system, reported_measurement) VALUES
  ('CCNCC(O)COc1ccc2c(c1)[n+]([O-])nc(N)[n+]2[O-] (stereo unspecified)', 'MDA-N', '> 100 µM'),
  ('CC(=O)OCC1OC(n2c3c(cc(C#N)c2=O)CCCCCC3)C(OC(C)=O)C(OC(C)=O)C1OC(C)=O (stereo unspecified)', 'MDA-N', '> 100 µM'),
  ('CCOC(=O)Nc1cc(NC(/C=N/NC(C)=O)C(=O)OCC)c(OC)cc1NC(C)=O (stereo unspecified)', 'MDA-N', '> 100 µM');

Each compound below has a recorded value; state its TGI.
1. CCSc1cc(C(=O)OC)c2n(c1=O)CCCC2
2. Cn1c(=O)c2ccccc2c2ccccc21
3. Cc1nn(-c2ccccc2)c2nc3c(c(C)nn3-c3ccccc3)c(-c3ccc(C(F)(F)F)cc3)c12
4. Nc1cccc(C2CCCc3c2[nH]c2ccccc32)c1 (stereo unspecified)
5. Nc1ccc(Cc2ccc(N=Cc3ccc(OCc4cccc(COc5ccc(C=Nc6ccc(Cc7ccc(N)cc7)cc6)cc5)n4)cc3)cc2)cc1
6. C[C@]12CCC3c4ccc(O)cc4CC[C@H]3C1CC(=O)NC2=O (stereo partly specified)

Data returned:
1. > 100 µM
2. > 100 µM
3. > 100 µM
4. 37.4 µM
5. > 100 µM
6. > 10 µM

Each compound below has a recorded value; state its TGI.
1. CN(C(=O)Nc1ccc(Cl)c(Cl)c1)C1CCCC[C@@H]1N1CCCC1 (stereo partly specified)
2. CC(C)(C)c1ccc(S(=O)(=O)N2C(c3cccc(C4CC[C@@H](C(=O)O)N4S(=O)(=O)c4ccc(C(C)(C)C)cc4)c3)CC[C@H]2C(=O)O)cc1 (stereo partly specified)
3. CC(C)c1cc2c(c(O)c1O)[C@@]1(C)CCCC(C)(C)C1=C(O)C2
4. COc1ccccc1-c1cc(=O)c2c(C)ccnc2[nH]1

Data returned:
1. > 100 µM
2. > 100 µM
3. 6.77 µM
4. 33.1 µM

Each compound below has a recorded value; state its TGI.
1. CC(C)(C)C(=O)C(C(=O)c1ccccc1)C(=O)C(C)(C)C
2. COc1cccc2c(=O)c3c(n(C)c12)OC(C(C)C)C3 (stereo unspecified)
3. NCCNS(=O)(=O)c1ccc(N)cc1
4. CNC(=O)Oc1ccc(C(=S)Nc2ccc(Br)cc2)cc1
5. N=C1N(/N=C/c2ccccn2)C(=Nc2ccccc2)C(=S)N1c1ccccc1
6. COc1ccc2cc(C(=O)CCC(=O)O)ccc2c1
7. CN1c2ccc(O)c(O)c2-c2cc(O)cc3c2C1CCC3 (stereo unspecified)

Data returned:
> 100 µM
> 100 µM
> 100 µM
57.3 µM
11.8 µM
> 100 µM
38.3 µM

compound COc1ccc(C2(O)C(S(=O)(=O)c3ccc(C)cc3)=Cc3ccc(OC)cc32)cc1 (stereo unspecified) , TGI observed: > 100 µM

Ref: PubChem BioAssay (NCI)
